Sourced from patent US9890153B2

# subject of test: SIK3 (QSK) (SEQ ID NO: 24) (Homo sapiens)
# Construct: Reaction Biology Corporation (assay service, HotSpot panel)
# Sequence (Q9Y2K2 whole entry): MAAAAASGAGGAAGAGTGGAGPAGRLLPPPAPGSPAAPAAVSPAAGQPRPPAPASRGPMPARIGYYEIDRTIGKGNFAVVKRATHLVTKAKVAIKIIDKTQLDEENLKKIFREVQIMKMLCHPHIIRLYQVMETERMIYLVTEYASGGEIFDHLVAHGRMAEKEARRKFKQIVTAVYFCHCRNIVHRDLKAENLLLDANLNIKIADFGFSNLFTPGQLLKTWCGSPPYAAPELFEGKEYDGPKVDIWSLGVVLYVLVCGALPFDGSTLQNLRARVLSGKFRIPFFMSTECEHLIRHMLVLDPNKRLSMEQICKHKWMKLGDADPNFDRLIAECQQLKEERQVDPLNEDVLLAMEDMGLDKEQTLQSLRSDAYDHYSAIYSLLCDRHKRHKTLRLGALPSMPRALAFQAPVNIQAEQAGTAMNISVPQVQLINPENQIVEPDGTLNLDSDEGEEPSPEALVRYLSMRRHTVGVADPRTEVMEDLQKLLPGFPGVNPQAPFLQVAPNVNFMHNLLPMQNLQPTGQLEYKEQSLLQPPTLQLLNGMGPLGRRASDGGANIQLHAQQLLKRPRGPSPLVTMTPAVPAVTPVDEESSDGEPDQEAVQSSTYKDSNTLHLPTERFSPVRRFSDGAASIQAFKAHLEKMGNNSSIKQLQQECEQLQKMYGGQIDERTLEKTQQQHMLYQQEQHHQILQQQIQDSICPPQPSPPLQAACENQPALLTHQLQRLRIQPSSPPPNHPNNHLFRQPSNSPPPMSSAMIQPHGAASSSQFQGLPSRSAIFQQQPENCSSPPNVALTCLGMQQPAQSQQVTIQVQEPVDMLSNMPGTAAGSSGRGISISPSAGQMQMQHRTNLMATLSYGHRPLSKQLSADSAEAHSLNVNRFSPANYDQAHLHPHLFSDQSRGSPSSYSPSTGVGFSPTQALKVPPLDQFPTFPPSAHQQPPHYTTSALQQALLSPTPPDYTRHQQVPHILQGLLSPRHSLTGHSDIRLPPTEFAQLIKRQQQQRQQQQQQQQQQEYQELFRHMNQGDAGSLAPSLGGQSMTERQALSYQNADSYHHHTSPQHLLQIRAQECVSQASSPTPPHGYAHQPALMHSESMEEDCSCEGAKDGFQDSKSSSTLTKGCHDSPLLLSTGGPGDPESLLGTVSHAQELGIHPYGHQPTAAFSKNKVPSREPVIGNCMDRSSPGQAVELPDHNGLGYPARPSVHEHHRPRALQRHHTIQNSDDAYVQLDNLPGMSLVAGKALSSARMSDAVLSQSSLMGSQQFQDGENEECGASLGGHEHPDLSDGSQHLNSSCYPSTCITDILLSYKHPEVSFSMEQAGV
# assay text: Protein kinase assay, SIK3
# Assay type: biochemical
# measurement context: read-out: SIK3 (QSK) (SEQ ID NO: 24) kinase inhibition result
# IC50 listing for each entry below
endpoint label: IC50

COc1c(F)cc(F)cc1-c1c[nH]c2ncc(-c3cccc(S(=O)(=O)N4CCCC4)c3)cc12	> 0.1 µM
Cc1ccc(-c2cnc3[nH]cc(-c4cccc(F)c4O)c3c2)o1	> 0.1 µM
COc1c(F)cc(F)cc1-c1c[nH]c2ncc(-c3cnn(C4CCN(C)CC4)c3)cc12	< 0.1 µM
